Molecular target: CDK9/cyclin T1 (Homo sapiens, UniProt P50750)
Sequence (P50750 whole entry): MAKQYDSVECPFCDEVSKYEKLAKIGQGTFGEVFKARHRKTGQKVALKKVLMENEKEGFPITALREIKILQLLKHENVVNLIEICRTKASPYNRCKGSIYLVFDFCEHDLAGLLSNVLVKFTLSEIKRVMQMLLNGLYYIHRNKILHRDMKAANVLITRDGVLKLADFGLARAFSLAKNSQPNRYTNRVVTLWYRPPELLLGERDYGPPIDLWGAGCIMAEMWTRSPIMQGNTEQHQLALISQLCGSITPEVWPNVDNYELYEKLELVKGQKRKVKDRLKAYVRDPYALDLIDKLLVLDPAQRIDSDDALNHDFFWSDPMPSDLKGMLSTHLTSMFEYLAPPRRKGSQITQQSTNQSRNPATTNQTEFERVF
Sequence (O60563 whole entry partner): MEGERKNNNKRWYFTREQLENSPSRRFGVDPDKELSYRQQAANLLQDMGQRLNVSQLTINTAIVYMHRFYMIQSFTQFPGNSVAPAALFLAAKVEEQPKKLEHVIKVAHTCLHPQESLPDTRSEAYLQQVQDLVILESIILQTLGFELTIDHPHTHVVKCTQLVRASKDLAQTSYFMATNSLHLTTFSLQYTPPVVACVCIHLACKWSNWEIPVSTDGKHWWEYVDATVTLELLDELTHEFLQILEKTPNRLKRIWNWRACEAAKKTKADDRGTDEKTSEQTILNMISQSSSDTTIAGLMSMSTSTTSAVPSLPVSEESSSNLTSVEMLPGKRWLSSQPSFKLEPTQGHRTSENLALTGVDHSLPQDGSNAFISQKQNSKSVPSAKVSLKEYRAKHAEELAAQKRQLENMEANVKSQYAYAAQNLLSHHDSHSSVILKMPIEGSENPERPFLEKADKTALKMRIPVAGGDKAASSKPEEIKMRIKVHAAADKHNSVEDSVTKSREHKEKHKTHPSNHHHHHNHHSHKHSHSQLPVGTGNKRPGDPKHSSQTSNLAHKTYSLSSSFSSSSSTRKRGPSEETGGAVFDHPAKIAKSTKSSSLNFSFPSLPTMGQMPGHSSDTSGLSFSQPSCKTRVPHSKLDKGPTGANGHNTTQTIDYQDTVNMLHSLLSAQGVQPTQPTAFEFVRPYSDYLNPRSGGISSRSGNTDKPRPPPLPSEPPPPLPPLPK
Test: CDK9/cyclin T1 kinase inhibition, LANCE assay
Format: biochemical
Conditions: reaction time 60 minutes, 10 μM ATP, 10-dose IC50, compounds 35-126 (127-208 listed, method not stated), read-out: CDK9/cyclin T1 Potency Grade
Protocol: Exemplary compounds of the invention (35-126) were tested for inhibition of CDK9/cyclin T1 kinase. Using a LANCE assay (reaction time 60 minutes), the compounds were tested in 10-dose IC50 duplicate mode with a 3-fold serial dilution starting at 4.3 μM. […] Reactions were carried out at 10 μM ATP. Data was normalized to positive and negative controls and curve fits were analyzed with XLFIT5 as % inhibition vs. log [compound concentration] using a 4-parameter logistic model205. […]
pIC50: −log10 of the molar value.
MEASURED_QUANTITY: pIC50

N[C@H]1CC[C@H](Nc2cc(C#Cc3ccccc3)nc3ccnn23)C1 [Compound 118] ... 6.30 to 9.00
COc1cc(N[C@@H]2CC[C@@H](N)C2)n2nccc2n1 [Compound 77] ... 6.00 to 6.30
N[C@H]1CC[C@H](Nc2cc(-c3ccc4c(c3)OCO4)nc3ccnn23)C1 [Compound 152] ... 6.30 to 9.00

Query: API: value(readout=pIC50, system=CDK9/cyclin T1 (Homo sapiens, UniProt P50750)) for record CCOc1cc(N[C@H]2CC[C@H](N)C2)n2nccc2n1 [Compound 182]
Reply: 6.00 to 6.30

Query: Do the same for CN(CCO)c1cc(N[C@H]2CC[C@H](N)C2)n2nccc2n1 [Compound 181] please
Reply: 6.30 to 9.00

Query: Do the same for CC(C)c1cc(N[C@@H]2CC[C@@H](NC(=O)OCc3ccccc3)C2)n2ncc(Cl)c2n1 [Compound 67] please
Reply: 6.30 to 9.00

Query: Do the same for N[C@H]1CC[C@H](Nc2cc(-c3cccc(F)c3)nc3ccnn23)C1 [Compound 111] please
Reply: 6.30 to 9.00

Query: Do the same for CN(Cc1ccccc1)c1cc(N[C@H]2CC[C@H](N)C2)n2nccc2n1 [Compound 97] please
Reply: 6.30 to 9.00

Query: Do the same for COc1cc(Cl)cc(-c2cc(N[C@H]3CC[C@H](N)C3)n3nccc3n2)c1 [Compound 165] please
Reply: 6.30 to 9.00

Query: Do the same for Cn1cncc1-c1cc(N[C@H]2CC[C@H](N)C2)n2nccc2n1 [Compound 174] please
Reply: 6.30 to 9.00

Query: Do the same for CC(C)c1cc(N[C@H]2CC[C@H](N)C2)n2ncc(C#N)c2n1 [Compound 155] please
Reply: 6.30 to 9.00

Query: Do the same for N[C@H]1CC[C@H](Nc2cc(N3CCCCC3)nc3ccnn23)C1 [Compound 156] please
Reply: 6.30 to 9.00

Query: Do the same for N[C@H]1CC[C@H](Nc2cc(C#CC3CC3)nc3ccnn23)C1 [Compound 120] please
Reply: 6.30 to 9.00

Query: Do the same for CC(C)(C#N)c1ccc(-c2cc(N[C@H]3CC[C@H](N)C3)n3nccc3n2)cc1 [Compound 113] please
Reply: 6.30 to 9.00

Query: Do the same for COc1cc(-c2cc(N[C@H]3CC[C@H](N)C3)n3nccc3n2)ccn1 [Compound 101] please
Reply: 6.30 to 9.00

* * *

Parameter IC50: see the listing below.
Target: CDK9/cyclin T1 (Homo sapiens, UniProt P50750)
Assay: CDK9/cyclin T1 kinase inhibition, LANCE assay
Type: biochemical
Conditions: reaction time 60 minutes, 10 μM ATP, 10-dose IC50, compounds 35-126 (127-208 listed, method not stated), read-out: CDK9/cyclin T1 Potency Grade

CC1(C)CC1c1cc(N[C@H]2CC[C@H](N)C2)n2nccc2n1 (stereo partly shown) [Compound 208] ... 1 to 500 nM

Query: API: value(readout=IC50, system=CDK9/cyclin T1 (Homo sapiens, UniProt P50750)) for record O=C(N[C@H]1CC[C@H](Nc2cc(C3CC3)nc3ccnn23)C1)OCc1ccccc1 [Compound 84]
Reply: > 1000 nM

Query: Do the same for `Cc1cc(-c2cc(N[C@H]3CC[C@H](N)C3)n3nccc3n2)ccn1` please
Reply: 1 to 500 nM

* * *

Parameter IC50: see the listing below.
Molecular target: CDK9/cyclin T1 (Homo sapiens, UniProt P50750)
Assay: CDK9/cyclin T1 kinase inhibition, LANCE assay
Type: biochemical
Conditions: reaction time 60 minutes, 10 μM ATP, 10-dose IC50, compounds 35-126 (127-208 listed, method not stated), read-out: CDK9/cyclin T1 Potency Grade

Look over these answered cases.
N[C@H]1CC[C@H](Nc2cc(-c3ccc(C4CC4)cc3)nc3ccnn23)C1 [Compound 205] ... 0.001 to 0.5 µM
N[C@@H]1CC[C@@H](Nc2cc(C3CC3)nc3ccnn23)C1 [Compound 134] ... 0.001 to 0.5 µM
Cc1cc(C)cc(-c2cc(N[C@H]3CC[C@H](N)C3)n3nccc3n2)c1 [Compound 196] ... 0.001 to 0.5 µM
Cn1cncc1-c1cc(N[C@H]2CC[C@H](NC=O)C2)n2nccc2n1 ... 0.501 to 1 µM
N[C@@H]1CC[C@@H](Nc2cc(C3CCC3)nc3ccnn23)C1 [Compound 42] ... 0.001 to 0.5 µM

Query: Data request, read-out IC50, for CC(C)c1cc(N[C@@H]2CC[C@@H](NC=O)C2)n2nccc2n1 [Compound 46]
Reply: 0.001 to 0.5 µM

Query: Do the same for COc1cc(C)cc(-c2cc(N[C@H]3CC[C@H](N)C3)n3nccc3n2)c1 [Compound 70] please
Reply: 0.001 to 0.5 µM

Query: Do the same for CCC(C)c1cc(N[C@@H]2CC[C@@H](NC=O)C2)n2nccc2n1 (stereo partly shown) [Compound 52] please
Reply: 0.001 to 0.5 µM

Query: Do the same for COCCN[C@@H]1CC[C@@H](Nc2cc(C(C)C)nc3ccnn23)C1 [Compound 150] please
Reply: 0.001 to 0.5 µM

Query: Do the same for CCC(CC)c1cc(N[C@H]2CC[C@H](N(C)CCOC)C2)n2nccc2n1 [Compound 153] please
Reply: 0.001 to 0.5 µM

Query: Do the same for `Cn1ccc(-c2cc(N[C@H]3CC[C@H](N)C3)n3nccc3n2)n1` please
Reply: 0.001 to 0.5 µM

Query: Do the same for Cc1cnn2c(N[C@@H]3CC[C@@H](NC(=O)OC(C)C)C3)cc(C(C)C)nc12 [Compound 85] please
Reply: 0.001 to 0.5 µM

Query: Do the same for CC(C)c1cc(N[C@@H]2CC[C@@H](N(O)C(N)=O)C2)n2nccc2n1 [Compound 60] please
Reply: 0.001 to 0.5 µM

Query: Do the same for N[C@@H]1CC[C@@H](Nc2cc(C3CCC3)nc3ccnn23)C1 [Compound 133] please
Reply: 0.001 to 0.5 µM

Query: Do the same for N[C@H]1CC[C@H](Nc2cc(-c3ccc4c(c3)OCO4)nc3c(Cl)cnn23)C1 [Compound 195] please
Reply: 0.001 to 0.5 µM

Query: Do the same for COC(=O)N[C@H]1CC[C@H](Nc2cc(C3CC3)nc3ccnn23)C1 [Compound 180] please
Reply: > 1 µM

Query: Do the same for N[C@H]1CC[C@H](Nc2cc(C3CCOC3)nc3ccnn23)C1 (stereo partly shown) please
Reply: 0.501 to 1 µM

Query: Do the same for CCC(CC)c1cc(N[C@H]2CC[C@H](NC(=O)c3cnc(C)cn3)C2)n2nccc2n1 [Compound 57] please
Reply: 0.001 to 0.5 µM

Query: Do the same for `CN1CCN(c2cc(N[C@H]3CC[C@H](N)C3)n3nccc3n2)CC1=O` please
Reply: 0.001 to 0.5 µM
